meta.source: PubChem BioAssay (NCATS)

# experiment_description: qHTS profiling of the MIPE4 collection as inhibitors of Plasmodium falciparum (3D7) proliferation (AID 743344);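 note: scaled between DMSO vehicle wells and 0.29 µM artemisinin as full inhibition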
# condition_details: P. falciparum 3D7 in erythrocytes, SYBR Green DNA fluorescence, 72 h; at 28.5 µM unless noted
# Method: Plasmodium falciparum is a virulent malarial parasite that kills 1-2 million people worldwide each year. […] Because mature erythrocytes lack DNA, only Plasmodium-derived DNA is detected. The SYBR Green viability assay was adapted from a method described previously (Plouffe et al., 2008). […] The following morning, fluorescence intensity at 485(14) nm excitation and 535(25) nm emission wavelengths was measured on an EnVision (Perkin Elmer) plate reader. […]
readout_type: parasite growth, % of DMSO control
State the value, then name its unit.

Query: Look up parasite growth, % of DMSO control for this compound: "C#Cc1cccc(Nc2ncnc3cc(OCCOC)c(OCCO)cc23)c1"
Result: 6.81%

Query: Reported parasite growth, % of DMSO control, compound "CC(C)(O)[C@H]1CC[C@@](C)([C@H]2[C@@H](O)C[C@@]3(C)[C@@H]4C[C@H](O[C@@H]5O[C@H](CO)[C@@H](O)[C@H](O)[C@@H]5O)[C@H]5C(C)(C)[C@@H](O[C@@H]6OC[C@@H](O)[C@H](O)[C@@H]6O)CC[C@@]56C[C@@]46CC[C@]23C)O1" : ____
Result: 90.6%

Query: Given the entry "CC(Oc1ccc(O)cc1)(P(=O)(O)O)P(=O)(O)O" , report its measured parasite growth, % of DMSO control.
Result: 64.8%

Query: // returns reported parasite growth, % of DMSO control for input "C[C@@H]1[C@H](C)CC[C@]2(C(=O)O)CC[C@]3(C)C(=CC[C@@H]4[C@@]5(C)C[C@@H](O)[C@H](O)[C@@](C)(CO)[C@H]5CC[C@]43C)[C@@H]12"
Result: 68.7%

Query: What measured parasite growth, % of DMSO control goes with COc1cccc2c1C(=O)c1c(O)c3c(c(O)c1C2=O)C[C@@](O)(C(=O)CO)C[C@@H]3O[C@H]1C[C@H](N)[C@H](OC2CCCCO2)[C@H](C)O1 (stereo partly specified) ?
Result: 5.43%

Query: Give its parasite growth, % of DMSO control value. Item: "CC(=O)O[C@]1(C(C)=O)CC[C@H]2[C@@H]3C=C(C)C4=CC(=O)CC[C@]4(C)[C@@H]3CC[C@@]21C"
Result: 23.2%
